Target: T1, human prolactin receptor (PRLR) on cells (human, UniProt P16471 25-622)
T1 construct: whole, on cells; also called human PRLR; hPRLR
T1 sequence (looked up): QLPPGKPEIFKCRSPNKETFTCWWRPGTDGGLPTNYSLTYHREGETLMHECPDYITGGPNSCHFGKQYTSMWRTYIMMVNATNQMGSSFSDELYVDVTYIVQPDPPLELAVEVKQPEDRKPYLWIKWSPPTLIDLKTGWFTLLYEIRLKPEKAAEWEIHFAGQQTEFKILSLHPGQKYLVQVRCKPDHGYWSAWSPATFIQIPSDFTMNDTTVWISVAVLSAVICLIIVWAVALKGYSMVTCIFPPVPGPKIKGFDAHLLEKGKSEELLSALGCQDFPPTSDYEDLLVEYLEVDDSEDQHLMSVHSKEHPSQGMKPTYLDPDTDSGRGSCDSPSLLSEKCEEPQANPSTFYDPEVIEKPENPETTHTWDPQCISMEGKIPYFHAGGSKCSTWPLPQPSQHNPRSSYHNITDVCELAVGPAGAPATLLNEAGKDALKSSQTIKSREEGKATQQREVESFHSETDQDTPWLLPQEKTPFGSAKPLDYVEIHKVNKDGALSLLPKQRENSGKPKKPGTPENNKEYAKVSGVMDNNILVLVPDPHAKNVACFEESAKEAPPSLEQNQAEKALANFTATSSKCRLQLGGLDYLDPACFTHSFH
Assay: FACS on human breast cancer cell line T47D, IgG1
Listing of entries alongside the reported EC50.
Number only, in nM; omit the unit.

Given HE06.642 (antibody, V domains shown, Human Engineered Novartis antibody (WO2008/022295); tested as human IgG1) VH: EVQLVESGGGLVQPGGSLRLSCAVSGFTFSSYGMSWVRQAPGKGLEWVATVSSGGTYTYYPDSVKGRFTISRDNSKNTLYLQMNSLRAEDTAVYYCARHRGNYYATYYYAMDYWGQGTLVTVSS VL: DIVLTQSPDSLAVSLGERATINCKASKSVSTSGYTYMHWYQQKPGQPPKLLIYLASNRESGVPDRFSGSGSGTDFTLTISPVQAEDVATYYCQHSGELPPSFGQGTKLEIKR , respond with its EC50.
1.8

Given XHA06.642 (antibody, V domains shown, Novartis antibody (WO2008/022295)) VH: EVQLVESGGDLVKPGGSLKLSCAVSGFTFSSYGMSWVRQTPDKRLEWVATVSSGGTYTYYPDSVKGRFTISRDNAKNTLYLQMSSLKSEDSAMYYCARHRGNYYATYYYAMDYWGQGTSVTVSS VL: DIVLTQSPASLAVSLGQGATISCRASKSVSTSGYTYMHWYQQKPGQPPKLLIYLASNLESGVPARFSGSGSGTDFTLNIHPVEEEDAATYYCQHSGELPPSFGGGTKLEIKR , respond with its EC50.
1.5

Given 005-C04 (antibody, V domains shown, Tested as human IgG1; also called IgG1 005-C04; 005-004) VH: EVQLLESGGGLVQPGGSLRLSCAASGFTFSSYWMHWVRQAPGKGLEWVSDISSASSYTNYADSVKGRFTISRDNSKNTLYLQMNSLRAEDTAVYYCARGLDARRMDYWGQGTLVTVSS VL: QSVLTQPPSASGTPGQRVTISCTGSSSNIGAGYVVHWYQQLPGTAPKLLIYRNNQRPSGVPDRFSGSKSGTSASLAISGLRSEDEADYYCAAWDDSLNGWLFGGGTKLTVLG , respond with its EC50.
1.9

Given XHA06.983 (antibody, V domains shown, Novartis antibody (WO2008/022295)) VH: DVQLVESGGGLVQPGGSRKLSCAASGFAFSSFGMQWVRQAPEKGLEWVAYISSGSSTIYYADTVKGRFTISRDNPKNTLFLQMTSLRSEDTAMYYCVRSGRDYWGQGTSVTVSS VL: SIVMTQTPKFLLVSAGDRVTITCKASQGVSNDVAWFQQKPGQSPKLLIYSASTRYTGVPDRLTGSGYGTDFTFTINTVQAEDLAVYFCQQDYTSPTFGGGTKLEIKR , respond with its EC50.
0.3

Further cases:
Given 001-E06 (antibody, V domains shown, Tested as human IgG1) VH: QVELLESGGGLVQPGGSLRLSCAASGFTFSSYWMSWVRQAPGKGLEWVSSVSDTGTDTHYADSVKGRFTISRDNSKNTLYLQMNSLRAEDTAVYYCAKTPLAYSSGWYYFDYWGQGTLVTVSS VL: DIVLTQPPSASGTPGQRVTISCSGSSSNIGSNTVNWYQQLPGTAPKLLIYRNYQRPSGVPDRFSGSKSGTSASLAISGLRSEDEADYYCQSYDSSLSGSVFGGGTKLTVLG , respond with its EC50.
1.8
